Species on record: Rattus norvegicus
procedure.text: Open TG-GATES - Regimen: Single
Type: toxicity, organism-based, Sprague-Dawley
Design: regimen Single, gender Male, age 6 weeks
run.parameters: in vivo, po, 0 mg/kg, 24 h, tissue Blood, route gavage, dose level Control
parameter: MCV (fL)

INSERT INTO assay_data (compound, parameter, reading_unit, measured_result) VALUES
  ('O=NN1CCOCC1 [N-NITROSOMORPHOLINE]', 'MCV', 'fL', 62.2),
  ('CCc1oc2ccccc2c1C(=O)c1cc(Br)c(O)c(Br)c1 [BENZBROMARONE]', 'MCV', 'fL', 63.7),
  ('CN(C)CCC=C1c2ccccc2COc2ccccc21 [DOXEPIN]', 'MCV', 'fL', 64.8),
  ('CC(C)N(CCC(C(N)=O)(c1ccccc1)c1ccccn1)C(C)C (configuration not stated) [DISOPYRAMIDE]', 'MCV', 'fL', 65),
  ('OCCOCCN1CCN(C(c2ccccc2)c2ccc(Cl)cc2)CC1 (configuration not stated) [HYDROXYZINE]', 'MCV', 'fL', 66.3),
  ('ClC(Cl)(Cl)Cl [CARBON TETRACHLORIDE]', 'MCV', 'fL', 63.8),
  ('O=NN(CCCl)C(=O)NC1CCCCC1 [LOMUSTINE]', 'MCV', 'fL', 67.2);

----------
Species on record: Rattus norvegicus
procedure.text: Open TG-GATES - Regimen: Daily Repeat
Type: toxicity, organism-based, Sprague-Dawley
Design: regimen Daily Repeat, gender Male, age 6 weeks
run.parameters: in vivo, po, 0 mg/kg, […], tissue Plasma, route gavage, dose level Control, time 14 day
# TP values compiled below
parameter: TP (g/dL)

INSERT INTO measurements (molecule, reading_unit, measured_result) VALUES
  ('CN(C)CCC=C1c2ccccc2COc2ccccc21 [DOXEPIN]', 'g/dL', 6),
  ('CN(C)C(=N)N=C(N)N', 'g/dL', 6),
  ('OCCOCCN1CCN(C(c2ccccc2)c2ccc(Cl)cc2)CC1 (configuration not stated) [HYDROXYZINE]', 'g/dL', 6.1),
  ('CCc1oc2ccccc2c1C(=O)c1cc(Br)c(O)c(Br)c1', 'g/dL', 6.1),
  ('CC1=C(CC(=O)O)c2cc(F)ccc2/C1=C\c1ccc([S+](C)[O-])cc1 (configuration not stated)', 'g/dL', 5.9),
  ('ClC(Cl)(Cl)Cl [CARBON TETRACHLORIDE]', 'g/dL', 5.9),
  ('CCCCc1oc2ccccc2c1C(=O)c1cc(I)c(OCCN(CC)CC)c(I)c1', 'g/dL', 6);

----------
Species on record: Rattus norvegicus
procedure.text: Open TG-GATES - Regimen: Daily Repeat
Assay type: toxicity, organism-based, Sprague-Dawley
Design: regimen Daily Repeat, gender Male, age 6 weeks
run.parameters: in vivo, po, 0 mg/kg, […], tissue Blood, route gavage, dose level Control, time 14 day
parameter: APTT (s)

INSERT INTO measurements (molecule, parameter, reading_unit, measured_result) VALUES
  ('CCc1oc2ccccc2c1C(=O)c1cc(Br)c(O)c(Br)c1 [BENZBROMARONE]', 'APTT', 's', 16),
  ('CC[C@H]1[C@@H]2C[C@H]3[C@@H]4N(C)c5ccccc5[C@]45C[C@@H]([C@@H]2[C@H]5O)N3[C@@H]1O [AJMALINE]', 'APTT', 's', 17.8),
  ('CCC1(c2ccccc2)C(=O)NC(=O)NC1=O [PHENOBARBITAL]', 'APTT', 's', 16.5);

Reference source: ChEMBL document CHEMBL3885861
